Molecular target: T1, human MASP-2cf CCP1-CCP2-SP (human, UniProt O00187 298-686, limits assumed)
T1 construct: domain: CCP1-CCP2-SP; also called human MASP-2 catalytic fragment
T1 sequence (O00187 298-686 limits assumed): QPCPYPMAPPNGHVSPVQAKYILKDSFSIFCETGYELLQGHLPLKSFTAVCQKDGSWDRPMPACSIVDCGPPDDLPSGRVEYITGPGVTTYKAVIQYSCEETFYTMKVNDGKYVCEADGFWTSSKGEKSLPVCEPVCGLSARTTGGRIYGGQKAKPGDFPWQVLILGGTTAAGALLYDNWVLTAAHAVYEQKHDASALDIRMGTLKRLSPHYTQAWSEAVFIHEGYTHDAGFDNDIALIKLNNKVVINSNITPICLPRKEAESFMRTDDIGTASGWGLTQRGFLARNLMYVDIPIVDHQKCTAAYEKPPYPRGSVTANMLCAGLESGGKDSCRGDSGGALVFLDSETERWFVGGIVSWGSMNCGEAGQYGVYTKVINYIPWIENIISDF
Test: SPR, target immobilised
Where no end group is shown, it is not given here.
REPORTED METRIC: Relative affinity (fold vs EVO2)
Give your result in fold vs EVO2 as a bare value.

Worked set:
| BINDER | Relative affinity, fold vs EVO2 |
| --- | --- |
| EVO22 (designed binder, not fully specified; cysteine pairing not given here, Modified TFPI-D2 Kunitz domain; made as m1) KPDFCFLENDPGPCRALKRRYFYNNQTKQCERFYYGGCLGNMNNFVTLEECKNICEDG | 13.1 |
| EVO21 (designed binder, not fully specified; ends and bridges not checked, Modified TFPI-D2 Kunitz domain; made as m1) KPDFCFLENDPGPCRALKRRYFYNNQTKQCERFGYGGCLGNMNNFVTLEECKNICEDG | 48 |
| EVO22b (designed binder, not fully specified; cysteine pairing not given here, Modified TFPI-D2 Kunitz domain; made as m1) KPDFCFLENDPGPCRALARRYFYNNQTKQCERFYYGGCLGNMNNFVTLEECKNICEDG | 8.5 |

// next entry
EVO222 (designed binder, not fully specified; cysteine pairing not given here, Modified TFPI-D2 Kunitz domain; made as m1) KPDFCFLENDPGLCRAAAVRYFYNNQTKQCERFYYGGCLGNMNNFVTLEECKNICEDG has a reported Relative affinity of 40

Data origin: patent US20260098080A1
